These entries and their values trace back to ChEMBL document CHEMBL1154257.

Measured IC50, listed per entry.
target: Telomerase reverse transcriptase (Homo sapiens, UniProt O14746); assay: Inhibition of telomerase in human A2780 cells by TRAP assay
Sequence (O14746 whole entry): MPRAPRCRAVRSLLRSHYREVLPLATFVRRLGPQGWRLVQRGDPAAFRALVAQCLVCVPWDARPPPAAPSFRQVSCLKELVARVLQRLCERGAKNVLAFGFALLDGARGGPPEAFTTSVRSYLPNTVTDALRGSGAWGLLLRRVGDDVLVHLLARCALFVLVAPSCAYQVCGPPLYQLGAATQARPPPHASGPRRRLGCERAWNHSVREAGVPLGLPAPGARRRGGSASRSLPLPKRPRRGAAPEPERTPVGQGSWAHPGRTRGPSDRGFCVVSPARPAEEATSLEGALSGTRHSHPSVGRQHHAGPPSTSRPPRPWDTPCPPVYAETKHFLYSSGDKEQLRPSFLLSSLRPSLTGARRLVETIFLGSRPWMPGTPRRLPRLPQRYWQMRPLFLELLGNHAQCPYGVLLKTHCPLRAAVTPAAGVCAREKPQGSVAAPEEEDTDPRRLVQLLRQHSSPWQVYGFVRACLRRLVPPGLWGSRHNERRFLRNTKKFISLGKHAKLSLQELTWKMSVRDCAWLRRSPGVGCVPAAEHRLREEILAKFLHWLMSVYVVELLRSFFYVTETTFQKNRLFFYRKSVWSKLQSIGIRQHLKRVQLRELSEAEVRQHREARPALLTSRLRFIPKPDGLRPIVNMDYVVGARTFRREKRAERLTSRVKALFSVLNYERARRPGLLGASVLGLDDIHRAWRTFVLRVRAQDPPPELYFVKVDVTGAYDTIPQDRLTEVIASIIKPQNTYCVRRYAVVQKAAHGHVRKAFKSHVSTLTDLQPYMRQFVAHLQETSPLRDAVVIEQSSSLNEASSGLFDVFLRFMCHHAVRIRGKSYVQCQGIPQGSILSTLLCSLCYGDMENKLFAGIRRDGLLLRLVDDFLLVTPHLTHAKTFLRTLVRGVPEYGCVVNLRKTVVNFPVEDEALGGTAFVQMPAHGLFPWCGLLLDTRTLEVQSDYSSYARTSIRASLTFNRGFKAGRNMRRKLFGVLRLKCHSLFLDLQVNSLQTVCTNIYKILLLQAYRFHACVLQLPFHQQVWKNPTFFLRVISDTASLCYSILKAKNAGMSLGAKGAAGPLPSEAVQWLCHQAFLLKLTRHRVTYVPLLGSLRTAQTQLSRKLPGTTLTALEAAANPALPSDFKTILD

Sample answers from the record:
{"molecule": "O=C(CCN1CCC(O)CC1)Nc1ccc2c(O)c3ccc(NC(=O)CCN4CCC(O)CC4)cc3nc2c1", "readout.value": "1700 nM"}
{"molecule": "O=C(CC[N+]1([O-])CCCCC1)Nc1ccc2c(=O)c3ccc(NC(=O)CC[N+]4([O-])CCCCC4)cc3[nH]c2c1", "readout.value": "49000 nM"}
{"molecule": "CCN(CC)CCC(=O)Nc1ccc2c(=O)c3ccc(NC(=O)CCN(CC)CC)cc3[nH]c2c1", "readout.value": "2700 nM"}
{"molecule": "CN(C)CCC(=O)Nc1ccc2nc3ccc(NC(=O)CCN(C)C)cc3c(O)c2c1", "readout.value": "600 nM"}
{"molecule": "O=C(CCN1CCCCC1CCO)Nc1ccc2c(=O)c3cc(NC(=O)CCN4CCCCC4CCO)ccc3[nH]c2c1 (configuration not stated)", "readout.value": "200 nM"}

Prompt: Request body: readout IC50, system Telomerase reverse transcriptase (Homo sapiens, UniProt O14746), query `O=C(CCN1CCCC1)Nc1ccc2nc3ccc(NC(=O)CCN4CCCC4)cc3c(O)c2c1` . Return the value.
Completion: 5800 nM

Prompt: # get_value(readout= IC50, system= Telomerase reverse transcriptase (Homo sapiens, UniProt O14746)) for `O=C(CCN1CCC(O)CC1)Nc1ccc2nc3ccc(NC(=O)CCN4CCC(O)CC4)cc3c(O)c2c1`
Completion: 2300 nM

Prompt: Recall the recorded IC50 for `Nc1ccc(Nc2c3ccc(NC(=O)CCN4CCCC4)cc3nc3cc(NC(=O)CCN4CCCC4)ccc23)cc1` with Telomerase reverse transcriptase (Homo sapiens, UniProt O14746) and state it.
Completion: 74 nM

Prompt: Missing value: IC50, Telomerase reverse transcriptase (Homo sapiens, UniProt O14746), entry `O=C(CCN1CCCC1)Nc1ccc2c(NC3CCCCC3)c3cc(NC(=O)CCN4CCCC4)ccc3nc2c1` . Fill in?
Completion: 210 nM

Prompt: Notebook: pull reported IC50 for Telomerase reverse transcriptase (Homo sapiens, UniProt O14746), entry `O=C(CCN1CCC(O)CC1)Nc1ccc2c(O)c3cc(NC(=O)CCN4CCC(O)CC4)ccc3nc2c1`
Completion: 200 nM

Prompt: Which measured IC50 belongs to `CC1(C)CC2CN(CCC(=O)Nc3ccc4cc5ccc(NC(=O)CCN6CC7CC(C)(C)CC(C)(C7)C6)cc5nc4c3)CC(C)(C2)C1` , tested on Telomerase reverse transcriptase (Homo sapiens, UniProt O14746)?
Completion: > 50000 nM

Prompt: Request: IC50, test system Telomerase reverse transcriptase (Homo sapiens, UniProt O14746), entry `O=C(CCN1CCCC1)Nc1ccc2c(=O)c3ccc(NC(=O)CCN4CCCC4)cc3[nH]c2c1`
Completion: 8100 nM

Prompt: Entry `CN(C)c1cccc(Nc2c3cc(NC(=O)CCN4CCCC4)ccc3nc3ccc(NC(=O)CCN4CCCC4)cc23)c1` , system Telomerase reverse transcriptase (Homo sapiens, UniProt O14746): what IC50 was measured?
Completion: 600 nM

Prompt: Observed IC50 on Telomerase reverse transcriptase (Homo sapiens, UniProt O14746) for `O=C(CCN1CCCCC1)Nc1ccc2c(O)c3cc(NC(=O)CCN4CCCCC4)ccc3nc2c1` , please.
Completion: 400 nM
